// provenance: patent US12421253B2

Provide the recorded pIC50 for the entries that follow.
subject-of-test: KRas^G12V (Homo sapiens, UniProt P01116, G12V)
Construct: […]; biotin (biotinylated)
Sequence (P01116 1-169 isoform P01116-2 G12V): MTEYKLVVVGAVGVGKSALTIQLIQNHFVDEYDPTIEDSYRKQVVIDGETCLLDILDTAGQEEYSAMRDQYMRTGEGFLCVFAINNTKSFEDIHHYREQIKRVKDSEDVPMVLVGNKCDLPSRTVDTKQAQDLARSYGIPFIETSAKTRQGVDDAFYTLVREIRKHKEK
assay: KRas binding assay (TR-FRET displacement of Cy5 labelled tracer)
Entry type: numeric. Quantity: pIC50, the -log10 of concentration in molar units.

# pIC50 of CCc1cccc2cccc(N3CCc4c(nc(OCC56CCCN5CCC6)nc4N4C[C@@H](C)C[C@H](O)C4)C3)c12 = 6.25

compound CCc1cccc2cccc(N3CCc4c(nc(OCC56CCCN5CCC6)nc4N4CCCN(C(N)=O)CC4)C3)c12 , pIC50 observed: 6.00

* * *

subject-of-test: KRas^G12V (Homo sapiens, UniProt P01116, G12V)
Construct: […]; biotin (biotinylated)
assay: KRas binding assay (TR-FRET displacement of Cy5 labelled tracer)
Record form. Attribute: IC50. Fill in for each entry.
State just the number; it will be interpreted in nM.

Reported IC50 of CCc1cccc2cccc(N3CCc4c(nc(OCC56CCCN5CCC6)nc4N(C)Cc4c[nH]nn4)C3)c12 [Example 127] : 739

Consider CCc1cccc2cccc(N3CCc4c(nc(OCC56CCCN5CCC6)nc4N4CCCC(O)(C(F)F)C4)C3)c12 (centres unmarked) [Example 44] . Its measured IC50 is 200

Value of measured IC50 for the entry CCc1cccc2cccc(N3CCc4c(nc(OCC56CCCN5CCC6)nc4N(C)CC(C)(C)O)C3)c12 [Example 113] : 450

The value of IC50 measured for the compound CCc1cccc2cccc(N3CCc4c(nc(OCC56CCCN5CCC6)nc4NCc4ccc5nncn5c4)C3)c12 [Example 39] turned out to be 221

Just so you know, measured IC50 for OCC1COCCN(c2nc(OC[C@@]34CCCN3C[C@H](F)C4)nc3c2CCN(c2cc(O)cc4ccc(F)c(Cl)c24)C3)C1 (some centres unmarked) [Example 73] came out at 3

// sample CCc1c(F)ccc2cc(O)cc(N3CCc4c(nc(OC[C@@]56CCCN5C[C@H](F)C6)nc4N4CCCC(c5ncn[nH]5)C4)C3)c12 (some centres unmarked) [Example 19] , its IC50 was 6

// sample CCc1cccc2cccc(N3CCc4c(nc(OCC56CCCN5CCC6)nc4N4CCOCC(n5cccn5)C4)C3)c12 (centres unmarked) [Example 9] , its IC50 was 165

Per the record, CCc1cccc2cccc(N3CCc4c(nc(OCC56CCCN5CCC6)nc4N4CCCC(O)(C(F)(F)F)C4)C3)c12 (centres unmarked) [Example 110] has IC50 of 566

// IC50 value for CCc1cccc2cccc(N3CCc4c(nc(OCC56CCCN5CCC6)nc4NCc4nc5ncccc5o4)C3)c12 [Example 157] : 1950

Form field IC50, entry CCc1cccc2cccc(N3CCc4c(nc(OCC56CCCN5CCC6)nc4N4CCCC(N5CCCC5=O)C4)C3)c12 (centres unmarked) [Example 137] : 1470

* * *

Kindly state IC50 for each of the entries shown.

IC50 on KRas^WT (Homo sapiens, UniProt P01116) for CCc1cccc2cccc(N3CCc4c(nc(OCC56CCCN5CCC6)nc4NC[C@H]4CCC(=O)N4)C3)c12 [Example 148] is 7310 nM

Tested on KRas^WT (Homo sapiens, UniProt P01116): CCc1cccc2cccc(N3CCc4c(nc(OCC56CCCN5CCC6)nc4N4CCCC(c5nnc6n5CCC6)C4)C3)c12 (stereo not drawn) [Example 106] . Observed IC50: 1420 nM

Known value: KRas^WT (Homo sapiens, UniProt P01116) IC50 of the compound CCc1cccc2cccc(N3CCc4c(nc(OCC56CCCN5CCC6)nc4N(C)CC4(O)CC4)C3)c12 [Example 98] equals 444 nM

KRas^WT (Homo sapiens, UniProt P01116) data for CCc1c(F)ccc2cc(O)cc(N3CCc4c(nc(OC[C@@]56CCCN5C[C@H](F)C6)nc4N4CCC(c5[nH]ncc5N)C4)C3)c12 (stereo partly drawn) [Example 26] ; its IC50: 24 nM

Response field IC50 (KRas^WT (Homo sapiens, UniProt P01116)) for item CCc1c(F)ccc2cc(O)cc(N3CCc4c(nc(OCC56CCCN5CCC6)nc4N4CCC[C@@](C)(O)C4)C3)c12 [Example 1] : ≤ 2 nM

Case CCc1cccc2cccc(N3CCc4c(nc(OCC56CCCN5CCC6)nc4N4CC(C)CC(CO)C4)C3)c12 (stereo not drawn) [Example 133] , KRas^WT (Homo sapiens, UniProt P01116), IC50 recorded as 1340 nM

Item CCc1cccc2cccc(N3CCc4c(nc(OCC56CCCN5CCC6)nc4N4CCC(O)C(CO)C4)C3)c12 (stereo not drawn) [Example 109] was tested on KRas^WT (Homo sapiens, UniProt P01116); the reported IC50 is 519 nM

Observed IC50, KRas^WT (Homo sapiens, UniProt P01116), CCc1c(F)ccc2cc(O)cc(N3CCc4c(nc(OC[C@@]56CCCN5C[C@H](F)C6)nc4N4CCC[C@@](C)(O)C4)C3)c12 [Example 2] : ≤ 2 nM

// returns IC50 for CCc1cccc2cccc(N3CCc4c(nc(OCC56CCCN5CCC6)nc4N4CCCC(O)(C(F)F)C4)C3)c12 (stereo not drawn) [Example 44] with KRas^WT (Homo sapiens, UniProt P01116); value = 191 nM

KRas^WT (Homo sapiens, UniProt P01116) IC50 of CCc1cccc2cccc(N3CCc4c(nc(OCC56CCCN5CCC6)nc4NCc4ccc5nncn5c4)C3)c12 [Example 39] is 1370 nM

Value (IC50, KRas^WT (Homo sapiens, UniProt P01116)) for record CCc1cccc2cccc(N3CCc4c(nc(OCC56CCCN5CCC6)nc4N4CCCC(c5ccno5)C4)C3)c12 (stereo not drawn) [Example 99] = 1240 nM

Tested system KRas^WT (Homo sapiens, UniProt P01116); IC50 recorded for CCc1cccc2cccc(N3CCc4c(nc(OCC56CCCN5CCC6)nc4N4CCCN(C(N)=O)CC4)C3)c12 [Example 95] was 255 nM

Query CCc1cccc2cccc(N3CCc4c(nc(OCC56CCCN5CCC6)nc4N4CCCC(c5n[nH]c(C)n5)C4)C3)c12 (stereo not drawn) [Example 93] on KRas^WT (Homo sapiens, UniProt P01116); IC50 returned: 678 nM

Item CCc1cccc2cccc(N3CCc4c(nc(OCC56CCCN5CCC6)nc4N4CCCC(c5ccn[nH]5)C4)C3)c12 (stereo not drawn) [Example 115] ; assay system KRas^WT (Homo sapiens, UniProt P01116); IC50 reported as 1150 nM

Per the reported KRas^WT (Homo sapiens, UniProt P01116) data, CCc1cccc2cccc(N3CCc4c(nc(OCC56CCCN5CCC6)nc4N4CC(CO)OC5(CCC5)C4)C3)c12 (stereo not drawn) [Example 129] has IC50 of 2210 nM

Short answer on KRas^WT (Homo sapiens, UniProt P01116) for CCc1cccc2cccc(N3CCc4c(nc(OCC56CCCN5CCC6)nc4N4CCCC(c5ncc(C)s5)C4)C3)c12 (stereo not drawn) [Example 135] , IC50: 2830 nM

The value of IC50 recorded for CCc1cccc2cccc(N3CCc4c(nc(OCC56CCCN5CCC6)nc4N4C[C@@H](C)C[C@@H](O)C4)C3)c12 [Example 111] when tested on KRas^WT (Homo sapiens, UniProt P01116) reads 411 nM

CCc1cccc2cccc(N3CCc4c(nc(OCC56CCCN5CCC6)nc4Nc4cnn(CC(N)=O)c4)C3)c12 [Example 139] tested on KRas^WT (Homo sapiens, UniProt P01116) gave IC50: 3480 nM

Field IC50 (KRas^WT (Homo sapiens, UniProt P01116)), entry CCc1cccc2cccc(N3CCc4c(nc(OCC56CCCN5CCC6)nc4N4CCCC(O)CC4)C3)c12 (stereo not drawn) [Example 7] : 143 nM

# CCc1cccc2cccc(N3CCc4c(nc(OCC56CCCN5CCC6)nc4N4CCCC(n5cccn5)C4)C3)c12 (stereo not drawn) [Example 82] with KRas^WT (Homo sapiens, UniProt P01116): IC50 is 712 nM

Entry CCc1cccc2cccc(N3CCc4c(nc(OCC56CCCN5CCC6)nc4N4CCCCCC4)C3)c12 [Example 49] , tested on KRas^WT (Homo sapiens, UniProt P01116), has a reported IC50 of 579 nM

* * *

subject-of-test: KRas^G12R (Homo sapiens, UniProt P01116, G12R)
Construct: […]; biotin (biotinylated)
Sequence (P01116 1-169 isoform P01116-2 G12R): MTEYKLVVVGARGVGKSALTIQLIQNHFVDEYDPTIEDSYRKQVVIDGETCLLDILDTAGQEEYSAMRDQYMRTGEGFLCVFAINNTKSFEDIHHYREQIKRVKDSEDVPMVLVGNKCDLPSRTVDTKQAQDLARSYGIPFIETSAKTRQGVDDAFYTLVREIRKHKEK
assay: KRas binding assay (TR-FRET displacement of Cy5 labelled tracer)
observation-type: IC50 (nM)
Kindly provide the numeric value in nM only, without the unit symbol.

Value (IC50, KRas^G12R (Homo sapiens, UniProt P01116, G12R)) for record CCc1cccc2cccc(N3CCc4c(nc(OCC56CCCN5CCC6)nc4NC4CCc5ncsc5C4)C3)c12 (centres unmarked) = 4950

Summary: CCc1cccc2cccc(N3CCc4c(nc(OCC56CCCN5CCC6)nc4N4CCC(O)C(CO)C4)C3)c12 (centres unmarked) , KRas^G12R (Homo sapiens, UniProt P01116, G12R), IC50 = 387

Log: KRas^G12R (Homo sapiens, UniProt P01116, G12R), compound CCc1cccc2cccc(N3CCc4c(nc(OCC56CCCN5CCC6)nc4N4CCCC5(CC(=O)N5)C4)C3)c12 (centres unmarked) , IC50 = 28

Record CCc1cccc2cccc(N3CCc4c(nc(OCC56CCCN5CCC6)nc4N4CCOCC(C)(O)C4)C3)c12 (centres unmarked) / KRas^G12R (Homo sapiens, UniProt P01116, G12R), IC50 recorded as 123

Entry CCc1c(F)ccc2cc(O)cc(N3CCc4c(nc(OC[C@@]56CCCN5C[C@H](F)C6)nc4N4CCOCC(C)(O)C4)C3)c12 (some centres unmarked) , KRas^G12R (Homo sapiens, UniProt P01116, G12R) data, IC50 value: 52

Query CCc1cccc2cccc(N3CCc4c(nc(OCC56CCCN5CCC6)nc4N4CCCC(c5cc(=O)[nH][nH]5)C4)C3)c12 (centres unmarked) on KRas^G12R (Homo sapiens, UniProt P01116, G12R); IC50 returned: 165

The compound CCc1cccc2cccc(N3CCc4c(nc(OCC56CCCN5CCC6)nc4N4C[C@@H]5C(=O)NC(=O)[C@@H]5C4)C3)c12 on KRas^G12R (Homo sapiens, UniProt P01116, G12R): IC50 was 42

The recorded IC50 with KRas^G12R (Homo sapiens, UniProt P01116, G12R) for CCc1c(F)ccc2cc(O)cc(N3CCc4c(nc(OC[C@@]56CCCN5C[C@H](F)C6)nc4N4CC5CC(O)CC(C5)C4)C3)c12 (some centres unmarked) was 80

The reported KRas^G12R (Homo sapiens, UniProt P01116, G12R) IC50 of CCc1cccc2cccc(N3CCc4c(nc(OCC56CCCN5CCC6)nc4N4CC(CO)OC5(CCC5)C4)C3)c12 (centres unmarked) is 760

Tested system KRas^G12R (Homo sapiens, UniProt P01116, G12R); IC50 recorded for CCc1cccc2cccc(N3CCc4c(nc(OCC56CCCN5CCC6)nc4N4CCCC(c5n[nH]cc5NC(C)=O)C4)C3)c12 (centres unmarked) was 2010

The reported IC50 value, KRas^G12R (Homo sapiens, UniProt P01116, G12R), for CCc1cccc2cccc(N3CCc4c(nc(OCC56CCCN5CCC6)nc4N4CCC(O)CC(CO)C4)C3)c12 (single isomer, unassigned) [Example 174] reads 24

The value of IC50 recorded for CCc1cccc2cccc(N3CCc4c(nc(OCC56CCCN5CCC6)nc4N4CCC(O)C(CO)CC4)C3)c12 (centres unmarked) when tested on KRas^G12R (Homo sapiens, UniProt P01116, G12R) reads 99

Record CCc1cccc2cccc(N3CCc4c(nc(OCC56CCCN5CCC6)nc4N4CCCC(c5cn(C)nn5)C4)C3)c12 (centres unmarked) ; system KRas^G12R (Homo sapiens, UniProt P01116, G12R); IC50 = 558

Tested system KRas^G12R (Homo sapiens, UniProt P01116, G12R); IC50 recorded for CCc1cccc2cccc(N3CCc4c(nc(OCC56CCCN5CCC6)nc4N4CCCC(N5CCCC5=O)C4)C3)c12 (centres unmarked) was 1140

Measured IC50 for this entry Oc1cc(N2CCc3c(nc(OC[C@@]45CCCN4C[C@H](F)C5)nc3N3CCOCC(n4cccn4)C3)C2)c2c(Cl)c(F)ccc2c1 (some centres unmarked) on KRas^G12R (Homo sapiens, UniProt P01116, G12R): 5

Entry CCc1cccc2cccc(N3CCc4c(nc(OCC56CCCN5CCC6)nc4N4CCCC(P(C)(C)=O)C4)C3)c12 (centres unmarked) , KRas^G12R (Homo sapiens, UniProt P01116, G12R) data, IC50 value: 2090

With KRas^G12R (Homo sapiens, UniProt P01116, G12R) as the test system, CN1CCC[C@H]1COc1nc2c(c(N3CCCC4(CNS(=O)(=O)N4)C3)n1)CCN(c1cccc3cccc(Cl)c13)C2 (some centres unmarked) showed IC50 of 350
